Overview of reported 5-HT (inhibition of reuptake of serotonin, % inhibition) across a group of molecules:
biological target: serotonin (5-HT) reuptake (Rattus norvegicus, UniProt P31652); construct: synaptosomes are freshly isolated from areas of the rat brain; from tissue; host or cells: rat brain synaptosomes (P2 fraction); test: Inhibition of serotonin (5HT) reuptake in synaptosomes from rat brain; format: biochemical; conditions: test concentration of 10 μM
Sequence (P31652 whole entry): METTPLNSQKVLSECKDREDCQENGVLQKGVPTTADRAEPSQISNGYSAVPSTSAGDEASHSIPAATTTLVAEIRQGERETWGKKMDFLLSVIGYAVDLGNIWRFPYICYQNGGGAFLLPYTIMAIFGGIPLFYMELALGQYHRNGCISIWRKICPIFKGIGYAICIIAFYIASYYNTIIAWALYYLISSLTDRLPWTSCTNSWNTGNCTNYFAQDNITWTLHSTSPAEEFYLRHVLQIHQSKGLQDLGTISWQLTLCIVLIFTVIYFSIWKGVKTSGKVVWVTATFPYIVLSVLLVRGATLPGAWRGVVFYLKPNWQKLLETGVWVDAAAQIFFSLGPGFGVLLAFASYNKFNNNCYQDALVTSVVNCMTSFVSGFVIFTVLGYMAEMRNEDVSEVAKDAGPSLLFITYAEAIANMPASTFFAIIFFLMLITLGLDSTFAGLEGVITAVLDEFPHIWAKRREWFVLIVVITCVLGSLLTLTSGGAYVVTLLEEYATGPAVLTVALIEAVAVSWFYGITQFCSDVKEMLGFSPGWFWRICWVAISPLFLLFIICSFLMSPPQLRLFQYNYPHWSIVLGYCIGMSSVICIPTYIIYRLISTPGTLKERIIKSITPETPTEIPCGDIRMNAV
Give just the numeric value; % need not be written.

>>> numeric_result("COc1cc(C)c(S(=O)(=O)N(C)CCOCC(=O)NCC2CCC(C(CCc3ccccc3)N(C)C)CC2)c(C)c1C (centres unmarked) [Example 453]")
89
>>> numeric_result("Cc1ccc(S(=O)(=O)N2CCC(OCC(=O)NCCC3CCC(C(c4cccs4)N(C)C)CC3)C2)cc1 (centres unmarked) [Example 272]")
88
>>> numeric_result("Cc1ccc(S(=O)(=O)N2CCC(OCC(=O)NCC3CCC(C(c4ccc(F)cc4)N(C)C)CC3)C2)cc1 (centres unmarked) [Example 447]")
95
>>> numeric_result("COc1cc(C)c(S(=O)(=O)N2CCC(OCC(=O)NCCC3CCC(C(c4ccc(F)cc4)N(C)C)CC3)C2)c(C)c1 (centres unmarked) [Example 509]")
97
>>> numeric_result("CN(C)C(c1ccc(F)cc1)C1CCC(CNC(=O)COCCN(C)S(=O)(=O)c2ccc(Cl)cc2)CC1 (centres unmarked) [Example 399]")
89
>>> numeric_result("CN(C)C(c1ccc(F)cc1)C1CCC(CNC(=O)COC2CCCN(S(=O)(=O)c3ccccc3)C2)CC1 (centres unmarked) [Example 488]")
94

Reported 5-HT (inhibition of reuptake of serotonin, % inhibition) for COc1cc(C)c(S(=O)(=O)N2CCC(OCC(=O)NCC3CCC(C(c4ccc(Cl)cc4)N(C)C)CC3)C2)c(C)c1 (centres unmarked) [Example 403] was 93

5-HT (inhibition of reuptake of serotonin, % inhibition) in this record for COc1cc(C)c(S(=O)(=O)N2CCCC(OCC(=O)NCC3CCC(C(c4ccc(Cl)cc4)N(C)C)CC3)C2)c(C)c1C (centres unmarked) [Example 449] : 73
